Test system: LOC_OS07G07230-cb001;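 further: purified Escherichia coli-expressed rice kinase domain construct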
ASSAY: thermal shift delta Tm vs DMSO control; higher = stronger stabilization (binding)
CONDITION_SUMMARY: 12.5 µM; protein concentration 2 µM
Is thermal shift delta Tm at least 0.3 °C? Then MET. If not, NOT MET.

Before answering, review these 5 worked examples.
compound=Cc1ccc([N+](=O)[O-])cc1S(=O)(=O)N(C)/N=C/c1cnc2ccc(Br)cn12 tested_target=LOC_OS07G07230-cb001 class=MET
compound=COc1ccc(S(=O)(=O)N(C(C)=O)c2ccccc2/C=C/c2cc[n+]([O-])cc2)cc1 tested_target=LOC_OS07G07230-cb001 class=MET
compound="CN1CCC(CNc2ccc3ncc(-c4cccc(OC(F)(F)F)c4)n3n2)CC1 [SGI-1776 free base]" tested_target=LOC_OS07G07230-cb001 class=MET
compound=O=C(c1ccc(F)c(F)c1Nc1ccc(I)cc1F)N1CC(O)([C@@H]2CCCCN2)C1 tested_target=LOC_OS07G07230-cb001 class=MET
compound=COc1cc2ncc(-c3ccccc3)nc2cc1OC tested_target=LOC_OS07G07230-cb001 class=MET

### Prompt Dear colleague, could you confirm whether `NC(=O)c1cnc(N[C@@H]2CCCC[C@@H]2N)nc1Nc1cccc(-n2nccn2)c1` has thermal shift delta Tm at or above 0.3 °C?
### Response MET

### Prompt Dear colleague, could you confirm whether `Cc1cn(-c2cc(NC(=O)c3ccc(C)c(Nc4nccc(-c5cnccn5)n4)c3)cc(C(F)(F)F)c2)cn1` has thermal shift delta Tm at or above 0.3 °C?
### Response NOT MET

### Prompt Dear colleague, could you confirm whether `Cc1cc(NC(=O)c2cccc(NC(=O)/C=C/CN(C)C)c2)ccc1Nc1nccc(-c2cccnc2)n1` has thermal shift delta Tm at or above 0.3 °C?
### Response NOT MET

### Prompt Dear colleague, could you confirm whether `C[C@@H](N)[C@H]1CC[C@H](C(=O)Nc2ccncc2)CC1` has thermal shift delta Tm at or above 0.3 °C?
### Response NOT MET

The reported numbers originate from the supplement of paper PMC9694430.
